Assay: MTT cytotoxicity assay, lung cancer
Type: cell-based, human
Conditions: human, A549 cells (lung cancer)
compounds and their reported viability at 6.25 μg/mL

compound	reported.property	value.reported
COc1cccc2c1C(=O)c1c(O)c3c(c(O)c1C2=O)C[C@@](O)(C(=O)CO)C[C@@H]3O[C@H]1C[C@H](N)[C@H](O)[C@H](C)O1 [doxorubicin, reference compound]	viability at 6.25 μg/mL	79.6%

Q: Look up viability at 6.25 μg/mL: CC(C)=CCc1c2c(c3occ(-c4ccc(O)cc4)c(=O)c3c1O)CC(C(C)(C)O)O2 (centres unmarked)
Result: 126%

====

Reported values of viability at 100 μg/mL for individual entries
Assay: MTT cytotoxicity assay, leukemia
Format: cell-based, human
Conditions: human, K562 cells (leukemia)
Your reply should be a number followed by the unit it is expressed in.

molecule	value.reported
COc1cccc2c1C(=O)c1c(O)c3c(c(O)c1C2=O)C[C@@](O)(C(=O)CO)C[C@@H]3O[C@H]1C[C@H](N)[C@H](O)[C@H](C)O1 [doxorubicin, reference compound]	32.4%

Q: Fill blank: measured viability at 100 μg/mL of the molecule CC(C)=CCc1c2c(c3occ(-c4ccc(O)cc4)c(=O)c3c1O)CC(C(C)(C)O)O2 (centres unmarked) [Compound 16, senegalensin] is ____.
Result: 9.7%
